Assign IC50 to each entry below.
systemUnderTest: Phosphatidylinositol 4,5-bisphosphate 3-kinase catalytic subunit beta isoform (Homo sapiens, UniProt P42338)
Sequence (P42338 whole entry, canonical isoform): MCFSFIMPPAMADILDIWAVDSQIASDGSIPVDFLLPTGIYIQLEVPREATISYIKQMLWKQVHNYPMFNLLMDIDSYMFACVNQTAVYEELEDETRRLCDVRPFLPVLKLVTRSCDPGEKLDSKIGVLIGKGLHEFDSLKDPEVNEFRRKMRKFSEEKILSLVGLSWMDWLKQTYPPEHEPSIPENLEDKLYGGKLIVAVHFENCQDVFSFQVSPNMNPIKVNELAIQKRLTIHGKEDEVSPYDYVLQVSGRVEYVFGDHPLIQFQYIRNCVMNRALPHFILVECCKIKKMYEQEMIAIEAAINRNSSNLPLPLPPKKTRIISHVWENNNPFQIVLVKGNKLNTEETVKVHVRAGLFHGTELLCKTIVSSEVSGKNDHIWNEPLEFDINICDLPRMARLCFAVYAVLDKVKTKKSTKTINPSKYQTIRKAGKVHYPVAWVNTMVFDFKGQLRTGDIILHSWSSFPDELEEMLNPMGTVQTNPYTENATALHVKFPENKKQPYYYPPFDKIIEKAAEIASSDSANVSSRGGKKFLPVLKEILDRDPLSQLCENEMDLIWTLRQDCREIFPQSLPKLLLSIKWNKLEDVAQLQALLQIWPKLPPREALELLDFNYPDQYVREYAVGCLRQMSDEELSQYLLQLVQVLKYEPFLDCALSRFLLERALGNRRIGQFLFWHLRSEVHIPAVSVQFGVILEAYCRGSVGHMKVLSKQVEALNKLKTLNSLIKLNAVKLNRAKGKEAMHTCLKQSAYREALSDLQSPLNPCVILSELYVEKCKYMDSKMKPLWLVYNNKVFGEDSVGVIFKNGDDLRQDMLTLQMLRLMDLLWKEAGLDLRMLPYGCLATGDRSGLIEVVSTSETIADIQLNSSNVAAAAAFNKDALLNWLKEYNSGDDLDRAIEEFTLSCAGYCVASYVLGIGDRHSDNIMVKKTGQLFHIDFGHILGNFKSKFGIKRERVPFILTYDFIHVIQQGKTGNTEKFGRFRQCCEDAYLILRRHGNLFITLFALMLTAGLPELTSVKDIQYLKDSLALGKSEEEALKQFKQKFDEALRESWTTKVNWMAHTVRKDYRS
Give bare numbers, in nM.

These recorded examples may help you get a feel for the data.
| smilesCode | unitOfMeasure | value |
| --- | --- | --- |
| Cc1nc2ccc(Cl)cc2c(N2CC(C)(C)c3ccc(N4CCOCC4)cc32)c1C | nM | 60 |
| Cc1nc2ccccc2c(N2CC(C)(C)c3ccc(N4CCOCC4)cc32)c1C | nM | 60 |
| Cc1c(-c2ccccn2)nc2cc(F)ccc2c1N1CC(C)(C)c2ccc(N3CCOCC3)cc21 | nM | 58 |

# return IC50 for each item in the list
1. Cc1c(-c2ccccn2)nc2cc(F)ccc2c1N1CC(C)(C)c2ccc(-c3ccncc3)cc21
2. Cc1c(-c2ccccc2)nc2ccccc2c1N1CC(C)(C)c2ccc(N3CCOCC3)cc21

## Output
1: 81; 2: 59

----------
assay: physchem
conditionInfo: phosphate buffered saline, pH 7.4
Description: Solubility of the compound in phosphate buffered saline at pH 7.4
recordedMetric: solubility
Value and unit, in that order.

| smilesCode | recordedMetric | value |
| --- | --- | --- |
| Cc1c(-c2ccccn2)nc2cccc(F)c2c1N1CC(C)(C)c2ccc(N3CCOCC3)cc21 | solubility | 5.2 µg/mL |
| Cc1c(-c2ccccn2)nc2cc(F)ccc2c1N1CC(C)(C)c2ncc(-c3ccnc(N)n3)cc21 | solubility | 17 µg/mL |
| Cc1c(-c2ccccc2F)nc2ccccc2c1N1CC(C)(C)c2ccc(N3CCOCC3)cc21 | solubility | 1 µg/mL |
| Cc1c(-c2ccccn2)nc2cc(F)ccc2c1N1CC(C)(C)c2ncc(N3CCOCC3)cc21 | solubility | 11 µg/mL |
| Cc1c(-c2ccccc2)nc2ccccc2c1N1CC2(CCOCC2)c2ccc(N3CCOCC3)cc21 | solubility | 3.2 µg/mL |

Batch: solubility for all items listed.
1. Cc1c(-c2ccccn2)nc2cc(F)ccc2c1N1CC(C)(C)c2ccc(N3CCOCC3)cc21
2. Cc1c(-c2ccccc2)nc2ccccc2c1N1CC(C)(C)c2ccc(N3CCOCC3)cc21
3. Cc1nc2ccc(Cl)cc2c(N2CC(C)(C)c3ccc(N4CCOCC4)cc32)c1C

## Output
1: 7.4 µg/mL; 2: 2.4 µg/mL; 3: 1 µg/mL

## Input For the compound Cc1nc2ccccc2c(N2CC(C)(C)c3ccc(N4CCOCC4)cc32)c1C , what solubility is on record?
## Output 1 µg/mL

----------
assay: in vivo
conditionInfo: Sprague-Dawley, rat, iv, 0.5 mg/kg
Description: Clearance in Sprague-Dawley rat at 0.5 mg/kg, iv
recordedMetric: clearance (mL/min/kg)
Give bare numbers, in mL/min/kg.

| smilesCode | unitOfMeasure | clearance |
| --- | --- | --- |
| Cc1c(-c2ccccn2)nc2cc(F)ccc2c1N1CC(C)(C)c2ncc(N3CCOCC3)cc21 | mL/min/kg | 16.2 |

Now consider the entry below.
## Input Form field: reported clearance of Cc1c(-c2ccccn2)nc2cc(F)ccc2c1N1CC(C)(C)c2ccc(-c3ccnc(N)n3)cc21
## Output 26.8

----------
Would you mind telling me the reported activity at 2 µM of each entry?
systemUnderTest: PXR (nuclear receptor subfamily 1 group I member 2) (Homo sapiens, UniProt O75469)
Sequence (O75469 whole entry): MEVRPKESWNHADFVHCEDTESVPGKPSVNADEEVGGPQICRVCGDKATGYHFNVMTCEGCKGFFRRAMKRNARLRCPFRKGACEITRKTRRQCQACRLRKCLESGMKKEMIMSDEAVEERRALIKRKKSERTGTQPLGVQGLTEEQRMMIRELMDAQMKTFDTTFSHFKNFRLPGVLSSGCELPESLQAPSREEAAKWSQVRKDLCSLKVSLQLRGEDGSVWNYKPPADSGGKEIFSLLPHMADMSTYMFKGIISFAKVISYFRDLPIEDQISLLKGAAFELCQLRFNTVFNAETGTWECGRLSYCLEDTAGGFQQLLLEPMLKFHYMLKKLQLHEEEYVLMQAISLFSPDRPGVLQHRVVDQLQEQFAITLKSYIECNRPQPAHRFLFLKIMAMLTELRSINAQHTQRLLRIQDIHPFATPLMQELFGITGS
assay: in vitro
Description: Inhibition of human PXR assessed as activity remaining at 2 uM relative to rifampicin
Numbers only, in %.

Consider the following illustrative entries.
| smilesCode | activity at 2 µM [%] |
| --- | --- |
| Cc1nc2ccccc2c(N2CC(C)(C)c3ccc(N4CCOCC4)cc32)c1C | 14 |
| Cc1c(-c2ccccc2)nc2ccccc2c1N1CC(C)(C)c2ccc(N3CCOCC3)cc21 | 197 |
| Cc1c(-c2ccccc2F)nc2ccccc2c1N1CC(C)(C)c2ccc(N3CCOCC3)cc21 | 162 |
| Cc1nc2ccc(Cl)cc2c(N2CC(C)(C)c3ccc(N4CCOCC4)cc32)c1C | 17 |
| Cc1c(-c2ccccn2)nc2cccc(F)c2c1N1CC(C)(C)c2ccc(N3CCOCC3)cc21 | 104 |
| Cc1c(-c2ccccn2)nc2cc(F)ccc2c1N1CC(C)(C)c2ncc(-c3ccnc(N)n3)cc21 | 65 |
| Cc1c(-c2ccccn2)nc2cc(F)ccc2c1N1CC(C)(C)c2ncc(N3CCOCC3)cc21 | 22 |
| Cc1c(-c2ccccc2)nc2ccccc2c1N1CC2(CCOCC2)c2ccc(N3CCOCC3)cc21 | 103 |
| Cc1c(-c2ccccn2)nc2cc(F)ccc2c1N1CC2(CCOCC2)c2ccc(N3CCOCC3)cc21 | 22 |
| Cc1nc2ccccc2c(N2CC3(CCOCC3)c3ccc(N4CCOCC4)cc32)c1C | 1 |

Then this compound:
## Input Value lookup for activity at 2 µM; key = Cc1c(-c2ccccn2)nc2cc(F)ccc2c1N1CC(C)(C)c2ccc(N3CCOCC3)cc21
## Output 106
